Source listed as patent US12441718B2.

- assayed.system: CYP3A4 (Homo sapiens)
- Sequence (P08684 whole entry): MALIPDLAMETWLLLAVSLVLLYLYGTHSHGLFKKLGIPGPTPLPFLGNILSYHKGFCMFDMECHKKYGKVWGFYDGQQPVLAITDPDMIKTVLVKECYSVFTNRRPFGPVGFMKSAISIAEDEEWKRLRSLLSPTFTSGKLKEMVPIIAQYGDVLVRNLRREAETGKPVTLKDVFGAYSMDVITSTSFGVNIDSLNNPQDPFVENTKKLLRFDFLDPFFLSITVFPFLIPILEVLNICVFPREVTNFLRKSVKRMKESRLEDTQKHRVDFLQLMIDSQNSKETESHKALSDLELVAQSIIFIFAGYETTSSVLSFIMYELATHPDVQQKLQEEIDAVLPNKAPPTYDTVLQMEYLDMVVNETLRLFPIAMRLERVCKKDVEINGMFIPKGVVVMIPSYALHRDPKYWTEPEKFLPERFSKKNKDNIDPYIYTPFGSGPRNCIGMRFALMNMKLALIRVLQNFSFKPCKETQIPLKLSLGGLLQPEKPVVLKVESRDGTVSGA
- procedure.summary: CYP inhibition in human liver microsomes (Eurofins ITEMG232), midazolam substrate
- Format: in vitro ADME
- Design: isoform-specific substrates incubated with human liver microsomes; tissue Eurofins ITEMG232 (protocol number); host or cells: human liver microsomes
- experimental.conditions: human, probe midazolam, read-out: CYP3A4 midazolam Inh %
Task for the reader: assign each of the following compounds its reported inhibition at 10 µM.
Give bare numbers, in %.

item.smiles: Cc1nc(NS(=O)(=O)c2ccc(CC(C)C)cc2-c2ccc(Cn3ccnc3C(C)(C)C)cc2)oc1C
unit.tag: %
inhibition at 10 µM: -48.7

item.smiles: CC(C)Cc1ccc(S(=O)(=O)Nc2ncc(C(F)(F)F)cn2)c(-c2ccc(Cn3ccnc3C(C)(C)C)c(F)c2)c1
unit.tag: %
inhibition at 10 µM: 45.8

item.smiles: CC(C)Cc1ccc(S(=O)(=O)Nc2nccs2)c(-c2ccc(Cn3ccnc3C(C)(C)C)c(F)c2)c1
unit.tag: %
inhibition at 10 µM: 0.4

item.smiles: CCc1nccn1Cc1ccc(-c2cc(CC(C)C)ccc2S(=O)(=O)Nc2ncccn2)cc1F
unit.tag: %
inhibition at 10 µM: 15.4

Quick request: inhibition at 10 µM for each listed item, please.
1. COc1ncnc(OC)c1NS(=O)(=O)c1ccc(CC(C)C)cc1-c1ccc(Cn2ccnc2C(C)(C)C)cc1
2. Cc1nccn1Cc1ccc(-c2cc(CC(C)C)ccc2S(=O)(=O)Nc2ncccn2)cc1F
3. COc1ncncc1NS(=O)(=O)c1ccc(CC(C)C)cc1-c1ccc(Cn2ccnc2C(C)(C)C)cc1
4. Cc1cnc(NS(=O)(=O)c2ccc(CC(C)C)cc2-c2ccc(Cn3ccnc3C(C)(C)C)cc2)nc1
5. Cc1nc(NS(=O)(=O)c2ccc(CC(C)C)cc2-c2ccc(Cn3ccnc3C(C)(C)C)c(F)c2)oc1C

**Result**
73
34.8
98.4
47.5
36
